- Test system: HL-60
- assay_info: Cytotoxicity against human HL-60 cells assessed as cell growth inhibition measured after 24 hrs by MTT assay
- Assay type: functional, cell-based
- measurement_context: HL-60, 24 h
outcome_measure: pIC50
pIC50 here: minus log base 10 of the concentration, concentration in moles per litre.

[
  {
    "molecule": "COC(=O)CC1=C(C)[C@@H]2C[C@@]3(C)C(=O)O[C@H]4O[C@@H](C)C(=O)[C@](C(=O)OC)([C@H]43)[C@@]2(C)CC=C1C(C)(C)OC",
    "experimental_target": "HL-60",
    "pIC50": 5.10
  }
]

With those in mind, consider the next molecule.
Req: Which pIC50 value belongs to C=C1[C@@]2(C)C[C@H]3[C@@]4(C)C(=CC[C@]3(C)[C@]1(C(=O)OC)C(=O)[C@@](C)(O)C2=O)C(C)(C)C(=O)C[C@H]4O [BERKELEYTRIONE] ?
Resp: 5.47
